Recorded values, source ChEMBL document CHEMBL3352281.

Tested on: HT-29
measurement_protocol: Antiproliferative activity against human HT-29 cells assessed as inhibition of cell growth at 10 to 60 uM after 4 days
Format: functional, cell-based
experimental_conditions: HT-29, 96 h
parameter: pEC50
On this scale, pEC50 is minus log10 of a concentration expressed in M (mol/L).

input: Read off the recorded pEC50 for O=c1ccc2nccc3c4ccccc4n1c23
output: 4.82

* * *

measurement_protocol: Toxicity against human NHDF assessed as cell viability up to 20 uM incubated for 3 days by MTT assay
Type: cell-based
experimental_conditions: NHDF cells, read-out: Activity
parameter: viability at 72 h (%)
Write down the numeric answer in % and omit the unit.

input: Read off the recorded viability at 72 h for O=c1ccc2nccc3c4ccccc4n1c23
output: 80
